target.or.system: human BACE1 (Homo sapiens, UniProt P56817)
Sequence (P56817 46-501): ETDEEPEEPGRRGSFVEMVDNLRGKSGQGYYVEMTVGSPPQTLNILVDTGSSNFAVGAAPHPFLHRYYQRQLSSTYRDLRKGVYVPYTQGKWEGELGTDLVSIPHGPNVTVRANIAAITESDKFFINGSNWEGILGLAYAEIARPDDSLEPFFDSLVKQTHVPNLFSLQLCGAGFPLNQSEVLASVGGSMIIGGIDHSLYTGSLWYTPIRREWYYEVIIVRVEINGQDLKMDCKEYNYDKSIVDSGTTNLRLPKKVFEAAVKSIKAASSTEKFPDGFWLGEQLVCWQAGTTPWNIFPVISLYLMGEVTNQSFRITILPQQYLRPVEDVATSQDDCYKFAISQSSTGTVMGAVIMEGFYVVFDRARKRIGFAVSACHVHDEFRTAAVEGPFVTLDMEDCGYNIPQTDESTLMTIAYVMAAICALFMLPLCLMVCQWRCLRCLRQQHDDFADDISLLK
pIC50: −log10 of the molar value.
property: pIC50

Answered examples (3):
CCCOc1cccc(C2(c3cc(C(=O)CC)n(CC)c3)N=C(N)N(C)C2=O)c1 (stereo not shown)	7.00 to 8.00
CCC(=O)c1cc([C@@]2(c3cccc(-c4cccnc4F)c3)N=C(N)N(C)C2=O)cs1	6.00 to 6.96
COC(=O)c1cc([C@]2(c3ccc(F)c(-c4cccnc4F)c3)N=C(N)N(C)C2=O)cn1CCF [Example 184A]	7.00 to 8.00

# evaluate next
input: Reported pIC50 for human BACE1 (Homo sapiens, UniProt P56817), given CCCC(=O)Nc1cccc(C2(c3cc(C(=O)CC)n(CC)c3)N=C(N)N(C)C2=O)c1 (stereo not shown) ?
output: 6.00 to 6.96
